Molecular target: T1, 4H3297-bN
T1 chain: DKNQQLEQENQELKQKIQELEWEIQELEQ
Test: two-hybrid library CCNG1;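 also: natural log of median RNA to DNA barcode read ratio; higher means stronger binding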
Measured Property: interaction score

binder="DKIQQLEQEIQELKQENQELKWKNQELEQ [4H2143-bN]" recorded_result=-0.664

I = DEIQQLEQENQELKQKIQELKWENQELEQ [4H235-bN]
II = DKIQQLEQEIQELKQKNQELEWEIQELKQ [4H2162-bN]
III = DKIQQLEQENQELKQEIQELKWKIQELEQ [4H2253-bN]
Data request: Hey, can you sort those binders up there by interaction score, smallest first? Respond with the label ranking, as requested.
Data returned: I, II, III
